# Test system: SK-NEP-1;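 further: growth inhibition of human SK-NEP-1 cells, read out by a cell viability assay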
# Method summary: cells
# Assay type: functional, cell-based, Homo sapiens
# Test context: Homo sapiens, SK-NEP-1
# Description: SANGER: Inhibition of human SK-NEP-1 cell growth in a cell viability assay.
Catalogue of IC50 readings, one per entry.
Measurement type: IC50 (µM)

[
  {
    "Compound": "CC(C)CCN1c2nc(Nc3cc(F)c(O)c(F)c3)ncc2N(C)C(=O)C1C (configuration not stated)",
    "Measurement unit": "µM",
    "Result comparator": "=",
    "Recorded number": 2.04
  },
  {
    "Compound": "Cc1cc([N+](=O)[O-])ccc1NS(=O)(=O)c1cc(Cl)ccc1Cl",
    "Measurement unit": "µM",
    "Result comparator": "=",
    "Recorded number": 19.2
  },
  {
    "Compound": "COc1cc(N2CCN(C)CC2)ccc1Nc1ncc2c(n1)N(C)c1ccccc1C(=O)N2C",
    "Measurement unit": "µM",
    "Result comparator": ">",
    "Recorded number": 8
  },
  {
    "Compound": "Nc1ccn([C@@H]2O[C@H](CO)[C@@H](O)C2(F)F)c(=O)n1",
    "Measurement unit": "µM",
    "Result comparator": "=",
    "Recorded number": 0.0229
  },
  {
    "Compound": "COc1cc2ncn(-c3cc(OCc4ccccc4S(C)(=O)=O)c(C#N)s3)c2cc1OC [GSK-319347A]",
    "Measurement unit": "µM",
    "Result comparator": ">",
    "Recorded number": 5
  },
  {
    "Compound": "Cc1ccc(-c2c(C(=O)CCl)n(CCCO)c3ncnc(N)c23)cc1",
    "Measurement unit": "µM",
    "Result comparator": ">",
    "Recorded number": 4
  },
  {
    "Compound": "COc1cccc2c1C(=O)c1c(O)c3c(c(O)c1C2=O)C[C@@](O)(C(=O)CO)C[C@@H]3O[C@H]1C[C@H](N)[C@H](O)[C@H](C)O1",
    "Measurement unit": "µM",
    "Result comparator": "=",
    "Recorded number": 0.116
  }
]

* * *

# Test system: HOP-62;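 further: cell growth inhibition determined with a viability assay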
# Method summary: cells
# Assay type: functional, cell-based, Homo sapiens
# Test context: Homo sapiens, HOP-62
# Description: SANGER: Inhibition of human HOP-62 cell growth in a cell viability assay.
pIC50: −log10 of the molar value.

[
  {
    "Compound": "COc1cc2ncn(-c3cc(OCc4ccccc4S(C)(=O)=O)c(C#N)s3)c2cc1OC [GSK-319347A]",
    "Target": "HOP-62",
    "Result comparator": "<",
    "pIC50": 5.30
  },
  {
    "Compound": "CCN(CC)CCNC(=O)c1c(C)[nH]c(/C=C2\\C(=O)Nc3ccc(F)cc32)c1C [SUNITINIB]",
    "Target": "HOP-62",
    "Result comparator": "=",
    "pIC50": 5.36
  },
  {
    "Compound": "Oc1ccc2ccccc2c1SSc1c(O)ccc2ccccc12",
    "Target": "HOP-62",
    "Result comparator": "<",
    "pIC50": 4.49
  },
  {
    "Compound": "CO[C@H]1C[C@@H]2CC[C@@H](C)[C@@](O)(O2)C(=O)C(=O)N2CCCC[C@H]2C(=O)O[C@H]([C@H](C)C[C@@H]2CC[C@@H](OC(=O)C(C)(CO)CO)[C@H](OC)C2)CC(=O)[C@H](C)/C=C(\\C)[C@@H](O)[C@@H](OC)C(=O)[C@H](C)C[C@H](C)/C=C/C=C/C=C/1C [TEMSIROLIMUS]",
    "Target": "HOP-62",
    "Result comparator": "<",
    "pIC50": 6.70
  },
  {
    "Compound": "N#Cc1c(O)c2c(-c3ccc(-c4ccccc4O)cc3)csc2[nH]c1=O",
    "Target": "HOP-62",
    "Result comparator": "<",
    "pIC50": 5.99
  },
  {
    "Compound": "COc1cc2ncn(-c3cc(OCc4ccccc4C(F)(F)F)c(C(N)=O)s3)c2cc1OC [GW843682X]",
    "Target": "HOP-62",
    "Result comparator": "=",
    "pIC50": 7.35
  },
  {
    "Compound": "COc1cc(N2CCN(C)CC2)ccc1Nc1ncc2c(n1)N(C)c1ccccc1C(=O)N2C",
    "Target": "HOP-62",
    "Result comparator": "=",
    "pIC50": 5.18
  },
  {
    "Compound": "CC(C)CCN1c2nc(Nc3cc(F)c(O)c(F)c3)ncc2N(C)C(=O)C1C (centres undefined)",
    "Target": "HOP-62",
    "Result comparator": "=",
    "pIC50": 5.37
  },
  {
    "Compound": "CS(=O)(=O)c1ccc(C(=O)Nc2ccc(Cl)c(-c3ccccn3)c2)c(Cl)c1 [VISMODEGIB]",
    "Target": "HOP-62",
    "Result comparator": "<",
    "pIC50": 5.00
  }
]
